# protocol_description: Metabolic stability in mouse kidney assessed as parent compound remaining measured after 1 hrs by UPLC-MS analysis
# Type: ADME, tissue-based
# experimental_setup: read-out: Stability
Numbered stars: 1 amine (or outer) side, 2 acyl side, 3 side chain; on linkers, the order of the positions; unused ones are H or OH. Square brackets hold non-standard residues; d marks the D form. Peptide text beside a SMILES is read from it. * marks the point of attachment. Ava(2S,3R-(OH)2,4S-OMe) = CO[C@@H](CN[*:1])[C@H](O)[C@H](O)C(=O)[*:2]; dHis(βS-OH,π-Me) = Cn1cncc1[C@@H](O)[C@@H](N)C(=O)O; Butanoyl(2R-OH,3S-OH) = C[C@H](O)[C@@H](O)C(=O)*; Val(3-OH) = CC(C)(O)[C@H](N)C(=O)O; NMeF = CN[C@@H](Cc1ccccc1)C(=O)O
What remaining at 1 h was measured for each of the following?
Express the result in % but write the number alone.

Request: Reported remaining at 1 h, compound CO[C@@H](CNC(=O)[C@H](NC(=O)[C@H](O)[C@H](C)O)[C@H](O)c1cncn1C)[C@H](O)[C@H](O)C(=O)N(C)[C@@H](Cc1ccccc1)C(=O)NCC(=O)N[C@H](C(=O)N[C@@H](CO)C(=O)N[C@H](C(=O)N[C@H](C(=O)N[C@@H](CO)C(=O)NCc1cc(=O)c(O)cn1O)C(C)(C)C)C(C)(C)O)C(C)(C)O : ____
Response: 99

Request: Reported remaining at 1 h, compound CO[C@@H](CNC(=O)[C@H](NC(=O)[C@H](O)[C@H](C)O)[C@H](O)c1cncn1C)[C@H](O)[C@H](O)C(=O)N(C)[C@@H](Cc1ccc(F)cc1)C(=O)NCC(=O)N[C@H](C(=O)N[C@@H](CO)C(=O)N[C@H](C(=O)N[C@H](C(=O)N[C@@H](CO)C(=O)NCc1cc(=O)c(O)cn1O)C(C)(C)C)C(C)(C)O)C(C)(C)O : ____
Response: 44

Request: Reported remaining at 1 h, compound CO[C@@H](CNC(=O)[C@H](NC(=O)[C@H](O)[C@H](C)O)[C@H](O)c1cncn1C)[C@H](O)[C@H](O)C(=O)N(C)[C@@H](Cc1ccccc1)C(=O)NCC(=O)N[C@H](C(=O)N[C@@H](CO)C(=O)N[C@H](C(=O)N[C@H](C(=O)N[C@@H](CCC(=O)NCc1cc(=O)c(O)cn1O)C(=O)O)C(C)(C)C)C(C)(C)O)C(C)(C)O : ____
Response: 97

Request: Reported remaining at 1 h, compound CO[C@@H](CNC(=O)[C@H](NC(=O)[C@H](O)[C@H](C)O)[C@H](O)c1cncn1C)[C@H](O)[C@H](O)C(=O)N(C)[C@@H](Cc1ccccc1)C(=O)NCC(=O)N[C@H](C(=O)N[C@@H](CO)C(=O)N[C@H](C(=O)N[C@@H](CC(C)C)C(=O)N[C@@H](CO)C(=O)O)C(C)(C)O)C(C)(C)O ({Butanoyl(2R-OH,3S-OH)}-[dHis(βS-OH,π-Me)][Ava(2S,3R-(OH)2,4S-OMe)][NMeF]G[Val(3-OH)]S[Val(3-OH)]LS-OH) : ____
Response: 41

Request: Reported remaining at 1 h, compound CO[C@@H](CNC(=O)[C@H](NC(=O)[C@H](O)[C@H](C)O)[C@H](O)c1cncn1C)[C@H](O)[C@H](O)C(=O)N(C)[C@@H](Cc1ccccc1)C(=O)NCC(=O)N[C@H](C(=O)N[C@@H](CO)C(=O)N[C@H](C(=O)N[C@H](C(=O)N[C@@H](CO)C(=O)O)C(C)(C)C)C(C)(C)O)C(C)(C)O : ____
Response: 104

Request: Reported remaining at 1 h, compound CC[C@H](C)[C@H](NC(=O)[C@@H](NC(=O)[C@H](CO)NC(=O)[C@@H](NC(=O)CNC(=O)[C@H](Cc1ccccc1)N(C)C(=O)[C@@H](O)[C@@H](O)[C@H](CNC(=O)[C@H](NC(=O)[C@H](O)[C@H](C)O)[C@H](O)c1cncn1C)OC)C(C)(C)O)C(C)(C)O)C(=O)N[C@@H](CO)C(=O)O : ____
Response: 20

Request: Reported remaining at 1 h, compound CO[C@@H](CNC(=O)[C@H](NC(=O)[C@H](O)[C@H](C)O)[C@H](O)c1cncn1C)[C@H](O)[C@H](O)C(=O)N(C)[C@@H](Cc1ccc(F)cc1)C(=O)NCC(=O)N[C@H](C(=O)N[C@@H](CO)C(=O)N[C@H](C(=O)N[C@H](C(=O)N[C@@H](CO)C(=O)O)C(C)(C)C)C(C)(C)O)C(C)(C)O : ____
Response: 109

Request: Reported remaining at 1 h, compound CC[C@H](C)[C@H](NC(=O)[C@@H](NC(=O)[C@H](CO)NC(=O)[C@@H](NC(=O)CNC(=O)[C@H](Cc1ccccc1)N(C)C(=O)[C@@H](O)[C@@H](O)[C@H](CNC(=O)[C@H](NC(=O)[C@H](O)[C@H](C)O)[C@H](O)c1cncn1C)OC)C(C)(C)O)C(C)(C)O)C(=O)N[C@@H](CO)C(=O)N[C@@H](CCC(=O)NCc1cc(=O)c(O)cn1O)C(=O)O : ____
Response: 84

Origin of the recorded values: ChEMBL document CHEMBL5356971
